Would you mind telling me the reported IC50 of each entry?
Molecular target: caspase-7 (Homo sapiens, UniProt P55210)
Sequence (P55210 24-198 limits assumed): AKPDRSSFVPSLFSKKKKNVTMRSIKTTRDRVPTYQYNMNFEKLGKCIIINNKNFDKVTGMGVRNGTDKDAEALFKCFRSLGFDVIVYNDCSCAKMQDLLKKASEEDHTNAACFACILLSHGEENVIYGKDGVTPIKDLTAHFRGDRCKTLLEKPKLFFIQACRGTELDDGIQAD
Sequence (P55210 207-303 limits assumed): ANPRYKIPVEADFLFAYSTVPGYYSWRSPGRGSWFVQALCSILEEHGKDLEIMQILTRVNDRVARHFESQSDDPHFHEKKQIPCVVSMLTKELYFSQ
Peptide text beside a SMILES is read from it. * marks the point of attachment. Cbz = O=C(OCc1ccccc1)*; CH2F = FC*
State just the number; it will be interpreted in µM.

Query: Recorded IC50 of CC[C@H](C)[C@H](NC(=O)OCc1ccccc1)C(=O)N[C@@H](CCC(=O)OC)C(=O)N[C@H](C(=O)N[C@@H](CC(=O)OC)C(=O)CF)[C@@H](C)O [z-IETD-FMK] (Cbz-IE(OMe)TD(OMe)-CH2F) , please.
Response: 2.63

Query: // query IC50 value for entry COC(=O)CC[C@H](NC(=O)[C@H](CC(C)C)NC(=O)OCc1ccccc1)C(=O)N[C@@H](Cc1c[nH]cn1)C(=O)N[C@@H](CC(=O)OC)C(=O)CF [z-LEHD-FMK] (Cbz-LE(OMe)HD(OMe)-CH2F)
Response: 3.9

Data provenance: paper PMC11888271
